Origin of values: paper PMC11580931

- experimental target: 3-pTza peptide (Biotin-AminocaproicAcid-AGAG-3-pTza-AGAG)
- method summary: BLI
measured parameter: kon (M⁻¹ s⁻¹)
Numbers only here, please. The scale is M⁻¹ s⁻¹.

# count of solved cases: 2
binder	kon / M⁻¹ s⁻¹
hSC44.28 IgG (antibody, V domains shown) VH: EVQLVESGGGLVQPGGSLRLSCTASGFSIDSYGFSWVRQAPGKGLEHIGYLTAGGRAFYASWAKSRSTITRNTNENTVTLKMNSLRAEDTAVYYCAKLGTGSPLAIWG VL: DIQMTQSPSSLSASVGDRVTITCRASQSVWRNKFVAWYQQKPGKAPKRLIYAIASLYSGVPSRFSGSGSGTDFTLTISSLQPEDFATYYCVGHYGSENDAYYAFGQGTKVEIK	24900
hSC44.31 IgG (antibody, V domains shown) VH: EVQLVESGGGLVQPGGSLRLSCTASGFSIDSYGFSWVRQAPGKGLEHIGYLTAGGRAFYASWAKSRSTITRNTNENTVTLKMNSLRAEDTAVYYCAKLGTGTPFAIWGQGTLVTVSS VL: DIQMTQSPSSLSASVGDRVTITCRASQSVWRNKYVAWYQQKPGKAPKRLIYAIASLYSGVPSRFSGSGSGTDFTLTISSLQPEDFATYYCVGHYGSENDAYYAFGQGTKVEIK	14700

q: Fill in: kon of hSC44.20.N32Y^L IgG (antibody, V domains shown) VH: EVQLVESGGGLVQPGGSLRLSCTASGFSIDSYGFSWVRQAPGKGLEHIGYLTAGGRAFYASWAKSRSTITRNTNENTVTLKMNSLRAEDTAVYYCAKLGTGSRFAIWGQGTLVTVSS VL: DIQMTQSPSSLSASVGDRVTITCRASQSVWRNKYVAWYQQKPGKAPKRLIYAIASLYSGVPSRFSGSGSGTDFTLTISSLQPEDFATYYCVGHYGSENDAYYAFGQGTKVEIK is ___
a: 35100

q: Given the entry hSC44.20.N32F^L IgG (antibody, V domains shown) VH: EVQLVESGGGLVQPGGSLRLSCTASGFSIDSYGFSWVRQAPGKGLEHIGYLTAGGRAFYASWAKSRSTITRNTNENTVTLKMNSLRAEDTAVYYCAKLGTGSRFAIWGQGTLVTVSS VL: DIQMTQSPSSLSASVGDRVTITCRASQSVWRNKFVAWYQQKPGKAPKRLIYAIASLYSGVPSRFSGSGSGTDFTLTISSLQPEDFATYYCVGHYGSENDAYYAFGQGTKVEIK , report its measured kon.
a: 37300
